Entries annotated with measured apparent KD of K4 kissing-loop reporter
Tested on: K4 kissing-loop RNA reporter
Assay: apparent KD of K4 kissing-loop reporter; higher = weaker reporter binding
Settings: Eterna round: R107; input ligand: FMN 200 uM

# Sequence text, apparent KD of K4 kissing-loop reporter
rows = [
    ("UGACUACAAAAGGAAUAAUCCUAGUGAUGUUAGGAUAUGCUGAUAAGCAGAAGGAACGGAGAUCGAAAGAUCUCAAAUGUAGUCU [whbob_Ex_FMNA__2th191]", "0.153 µM"),
    ("GGAUCCACCAGUGAUGUUGGAGAAAACUCCAAGGAUAUGACGAAAGUCAGAAGGUGGUAGACUGGUCAAAGUCCGGUCGGAUCCA [FmnA10 U66]", "0.297 µM"),
    ("ACGUGCACUAGUGAUGUUGGAAAAUAGGAAGGAGCGGGCGAAAGCCCAGGUAGGUCGCCUAAUAGCACGAGCCACGAAAGUGGCA", "0.376 µM"),
    ("GUAUCGCUAGGAGGAUAUUUCAAUUUGACUCUUUGAGUUUUUACGGAGUGAUGUUCCGUUUUACGGAAAGAAGGCCUAGUGAUAC [FMN B 15]", "0.121 µM"),
    ("UGUCAUGGAAACAUGAACGUUAAAAUAAAUCGAGGACCGGUACGGCCGCCACUCGUAUAGCGGUCAGUGAUGUUGACUGUAGUAC [KL-SSTryp-A form2 sub11 #dotplot2>1]", "0.107 µM"),
    ("ACGCGCGCGAGUGAUGUUCGGAGCGGCUGGCAGGAUAUGUAGCAAUGCAGAAGGGUCGUGGCGGUGGGCGCGCAAGCGGCUGCCG [#2 Exclusion - FMN A Attempt #12 (HarryS)]", "0.187 µM"),
]

====

Test system: K4 kissing-loop RNA reporter
Assay: apparent KD of K4 kissing-loop reporter; higher = weaker reporter binding
Details: Eterna round: R107; input ligand: arginine 13.2 mM
Parameter: apparent KD of K4 kissing-loop reporter (nM)

# Sequence text, Result
data = [
    ("GCUAGGAUGGCAGGAUAUAGUUCGUGAGUGAUGUUCAAAGAACUAAGAGGGACACCUCAUUCUAAACUAGAAGGGCCAUCCUAGC", 275),
    ("CAUCACGCAAUCACGGAUGCAAGCAUUGAUACCAGAACCGAUUAUUUCCCUUGGCAGCAACACGGAGUGAUGUUCCUAGCAUAUA [theeternabot_sameState_KL_Theo_A_21]", 122),
    ("CGCGCCCAGCCGGAUACCAGUGACCCGCUGGGAACCGCGGGCCCAGAGUGAUGUUCGGGACACCCUUGGCAGCCGCCUGGGCGGG [#2 Same State - Theophylline B Attempt #16 (HarryS)]", 606),
]

====

apparent KD of K4 kissing-loop reporter overview
System: K4 kissing-loop RNA reporter;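 further: bound reporter read as fluorescence of individual clusters on recovered sequencing chips by microscopy, with normalized cluster intensities fitted with a binding model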
Test: apparent KD of K4 kissing-loop reporter; higher = weaker reporter binding
Details: Eterna round: R107; input ligand: arginine 13.2 mM
Parameter: apparent KD of K4 kissing-loop reporter (nM)

# Sequence text, Result
data = [
    ("AGUCCACUCUAAAGAGUGGACCUAAGGGAUACCAGUGAUGUUGGUCACCCUUGGCAGCCCUCUGUCAUCGAUAAAGAUGGCAGUA", 101),
    ("AUUUGUUUAUGUGAUACCAGACUUUGCAGUGAUGUUGCUUUUAUUUUUGAAUUUUAAAUAGUCCCUUGGCAGCACUAUGUAUUUA [JR_SSTheophyB_Sub009]", 132),
    ("UACACGACUCGUGUAAACCGAGGUAACAGGCAGGAUAUGUAACGGAACAGAAGGGCCAUGUAGCGUGUCCAGUGAUGUUGGAUGC [Betilare]", 166),
    ("UGACUGGACUGAAGGAGCGCGCGAGACAAAGUCUCGAACUCCUAGUGAUGUUAGGAAAUAACGCAGGUAGGUCGCAGUCUAGUCU [ArgBS 10 #SwitchBubble #StaticStem #DoubleMagnet]", 190),
    ("UGAACUGUCUGCGAUACCAGCUAAGGAGUGAUGUUCCGGCUCGACGAAACGUCGAGCCAUAGCCCUUGGCAGCGCAGACAGUUCA [#28 K4 Theophylline B Same State]", 160),
    ("GACAGUCGGUGUUAAUGACAGUUACGCGAUACCAGCGAAACAGUACGCCCUUGGCAGCGCAGUGAUGUUGCGCGCCUAGUGUGGU [Esbiceve]", 94.8),
    ("UGUGUUUACCUGACUCAGUGAUGUUGAGAAGGAGCGUGCUAAGGCACAGGUAGGUCGCUCAACCUAAAUUCAGGUGAGCACUAAA", 351),
]
